Catalogue of molecules with associated inhibition
- Assayed System: Sentrin-specific protease 6 (Homo sapiens) (UniProt Q9GZR1)
- Sequence (Q9GZR1 628-1112 limits assumed): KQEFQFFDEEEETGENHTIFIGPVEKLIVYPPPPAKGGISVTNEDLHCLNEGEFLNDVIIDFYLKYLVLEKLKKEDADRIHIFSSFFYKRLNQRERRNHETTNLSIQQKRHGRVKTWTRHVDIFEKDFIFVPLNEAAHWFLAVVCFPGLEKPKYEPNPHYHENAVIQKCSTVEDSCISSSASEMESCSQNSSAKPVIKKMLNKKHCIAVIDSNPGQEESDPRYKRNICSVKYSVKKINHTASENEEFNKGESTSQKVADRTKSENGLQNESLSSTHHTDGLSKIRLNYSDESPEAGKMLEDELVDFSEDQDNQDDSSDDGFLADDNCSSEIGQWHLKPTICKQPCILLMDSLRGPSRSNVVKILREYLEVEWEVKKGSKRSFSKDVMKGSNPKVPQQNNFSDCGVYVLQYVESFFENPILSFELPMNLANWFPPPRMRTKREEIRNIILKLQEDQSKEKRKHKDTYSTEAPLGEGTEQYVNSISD
- Experimental Protocol: SENP6 protease inhibitors, confirmation, biochemical, luminescence, single concentration (AID 488915)
- Condition: recombinant SENP6, Z-RLRGG-aminoluciferin luminescence; at 12.5 µM; stronger effect = higher value
The list shows a part of the results. Active and inactive are the calls of the source.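 Rule for the calls: active = mean inhibition above about 50% in the one-dose retest (limit read from the data); inactive = the rest.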
Assay Readout: inhibition

Given Smiles: O=C(Oc1ccc(-c2nc(-c3ccccn3)no2)cc1)c1ccccc1
Result: 23.1% (inactive)
--
Given Smiles: Cc1cccc(NC(=O)COc2ccc(Br)cc2C)n1
Result: 50% (inactive)
--
Given Smiles: CC(C)Cc1cc(C(=O)Nc2cc(Br)ccc2O)no1
Result: 21.4% (inactive)
--
Given Smiles: O=C(Nc1ccccc1)c1cc2ccccc2[nH]1
Result: -15.9% (inactive)
--
Given Smiles: c1ccc2[nH]c(-c3nc4ccccc4[nH]3)nc2c1
Result: 42.7% (inactive)
--
Given Smiles: CCc1ccc(NC(=O)C(=O)NNC(=O)c2cccs2)cc1
Result: 73.4% (active)
--
Given Smiles: COc1ccc(C(=O)/C=C/Nc2ccccn2)cc1
Result: 98% (active)
--
Given Smiles: O=C(Nc1ccc(C(=O)O)c(O)c1)c1ccccc1
Result: 73.7% (active)
--
Given Smiles: Cc1ccc2nc(-c3ccc(Br)cc3)cn2c1
Result: 34.4% (inactive)
--
Given Smiles: Nc1ncc(-c2cc3ccccc3oc2=O)s1
Result: 92.8% (active)
--
Given Smiles: CCc1ccc2oc(-c3ccc(N)cc3)nc2c1
Result: 94.8% (active)
--
Given Smiles: COc1ccc(Cc2nnc(SCC(=O)c3cccc([N+](=O)[O-])c3)n2C)cc1
Result: 1.7% (inactive)
